biological target: T1, His6-MadC (hexa-histidine tagged cyclase MadC, wild type) (Clostridium sp. maddingley); assay: SPR; His6-MadC variant captured on a poly-NTA (Ni2+) chip to 400–500 RU; L3 injected at 180 nM to 30 μM; 200 mM NaCl, 50 mM HEPES/NaOH pH 8; affinity from the maximum RU values; conditions: both partners purified
T1 construct: MadC, class I lanthipeptide cyclase, Clostridium sp. maddingley, NCBI EKQ50560.1, in pET28b(+) with N-terminal His6-tag and thrombin cleavage site; Thrombin cleavage site between the tag and MadC; Captured by the His-tag on the Ni-NTA chip in SPR; also the crystallised form (PDB 8BYK); also called wild-type MadC; not shown: His6, N-terminal, kept
assay-metric: Kd (µM)

binder	unit-info	readout-value
MGKLDDFDLDVKVKADTTKVGPAITSKSLCTPG (synthetic, unmodified peptide (no lanthionine rings); MadA 1-33 from Table S4) [maddinglicin leader peptide construct madL3, Leader 3 (−23 − +10)]	µM	16
